Origin of measurements: PubChem BioAssay

STUDY_SYSTEM: ATP-binding cassette sub-family B member 6 (Homo sapiens) (UniProt Q9NP58)
Sequence (Q9NP58 whole entry, looked up): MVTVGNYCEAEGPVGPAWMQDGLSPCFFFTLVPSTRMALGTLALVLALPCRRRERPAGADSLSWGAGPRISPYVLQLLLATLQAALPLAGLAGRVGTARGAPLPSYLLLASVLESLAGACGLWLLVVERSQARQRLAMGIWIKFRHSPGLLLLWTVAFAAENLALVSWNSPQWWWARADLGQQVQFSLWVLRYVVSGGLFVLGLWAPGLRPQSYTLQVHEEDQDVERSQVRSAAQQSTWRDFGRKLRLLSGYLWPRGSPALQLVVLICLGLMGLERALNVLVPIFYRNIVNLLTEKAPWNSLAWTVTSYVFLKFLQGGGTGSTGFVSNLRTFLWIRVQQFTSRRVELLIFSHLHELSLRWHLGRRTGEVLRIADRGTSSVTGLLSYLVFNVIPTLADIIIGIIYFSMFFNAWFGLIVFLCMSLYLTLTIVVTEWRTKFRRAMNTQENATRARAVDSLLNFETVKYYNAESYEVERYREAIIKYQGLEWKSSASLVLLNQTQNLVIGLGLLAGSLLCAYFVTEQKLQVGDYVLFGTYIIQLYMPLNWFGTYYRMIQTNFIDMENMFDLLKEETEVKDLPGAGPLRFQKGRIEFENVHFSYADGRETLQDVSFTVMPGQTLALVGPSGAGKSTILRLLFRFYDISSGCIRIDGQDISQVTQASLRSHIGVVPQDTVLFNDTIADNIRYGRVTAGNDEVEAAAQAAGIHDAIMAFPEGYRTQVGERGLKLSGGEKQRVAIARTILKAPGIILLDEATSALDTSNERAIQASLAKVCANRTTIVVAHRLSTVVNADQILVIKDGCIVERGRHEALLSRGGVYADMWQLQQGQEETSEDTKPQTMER
EXPERIMENT: ABCB6 transporter inhibitors, pilot screen, K562-ABCB6 cells, flow cytometry, validation set (AID 588550);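 also: 0% = DMSO wells and 100% = benzethonium chloride 70 µM positive control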
MEASUREMENT_PARAMETERS: K562-ABCB6 porphyrin accumulation, 1 h, at 10 µM, stronger effect = higher value
Activity calls are given as the source filed them.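 The calls were made as follows: active = inhibition above the screen-wide mean plus 3 SD, about 51%; inactive = the rest.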
Quick reference for inhibition among some compounds

Some solved cases for reference:
COMPOUND | OBSERVED_PROPERTY | TEST_RESULT
O=C(CCCN1CC=C(n2c(=O)[nH]c3ccccc32)CC1)c1ccc(F)cc1 | inhibition | 6% (inactive)
COc1ccc(/C=C2\CCc3ccccc3C2=O)c(OC)c1OC | inhibition | 5% (inactive)
N#Cc1c2c(c(-c3ccccc3)[nH]c1=O)CCCC2 | inhibition | 5% (inactive)
OCCN1CCN(CCCN2c3ccccc3Sc3ccc(Cl)cc32)CC1 | inhibition | -3% (inactive)

Exam item: Given the compound CC1=CC(C)(C)N2C(=O)C3(NCCc4c3[nH]c3ccccc43)c3cc(C)cc1c32 (stereo not given) , what is its reported inhibition?
Marked response: 4% (inactive)

* * *

EXPERIMENT: RPL19A-GFP modulators, yeast TOR pathway, confirmation, cell-based, S. cerevisiae, flow cytometry, cherry picks, mother/daughter gates (AID 2270)
MEASUREMENT_PARAMETERS: S. cerevisiae RPL19A-GFP strain, 3 h, at 10 µM, stronger effect = lower value, 100 = same GFP as DMSO wells
OBSERVED_PROPERTY: GFP response vs DMSO (%)
Report as a plain number; the unit % is understood.

Some solved cases for reference:
COMPOUND | UNIT_ANNOTATION | GFP response vs DMSO
C[C@]12CCC(=O)C=C1CC[C@@H]1[C@@H]2C(=O)C[C@@]2(C)[C@H]1CC[C@]2(O)C(=O)CO | % | 97
CCOC(=O)c1cnn(-c2cc(C)nc3c(-c4ccccc4)c(C)nn23)c1N | % | 96.6
Clc1ccc(-n2nnnc2Sc2ncnc3sccc23)cc1 | % | 100
C/C(=N\NC(=O)c1ccc(Cl)cc1)c1cccc(NC(=O)C(C)C)c1 | % | 95.8
C/C(=N\Nc1ncnc2sc(C)c(C)c12)c1ccccn1 | % | 194

Now consider a different compound.
Exam item: Given the compound Fc1ccc(C2CC(c3ccccc3)n3ncnc3N2)cc1 (stereo not given) , what is its reported GFP response vs DMSO?
Marked response: 96.8

* * *

EXPERIMENT: modulators of MEP2-GFP levels in yeast, confirmation, S. cerevisiae, flow cytometry GFP, cherry picks (AID 2272);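 also: ratio of well signal to plate DMSO mean so 100% equals DMSO level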
MEASUREMENT_PARAMETERS: S. cerevisiae MEP2-GFP strain, 3 h, at 10 µM, stronger effect = higher value
OBSERVED_PROPERTY: GFP response vs DMSO (%)
Report as a plain number; the unit % is understood.

Some solved cases for reference:
COMPOUND | GFP response vs DMSO (%)
CCC(=O)Nc1ccc(NC(=O)c2cc3ccccc3o2)c(OC)c1 | 101
N#Cc1nccnc1S(=O)(=O)c1cccs1 | 106

Exam item: Given the compound Cc1ccc(SC(=O)c2c(C)noc2-c2cc(C)on2)cc1 , what is its reported GFP response vs DMSO?
Marked response: 126

Exam item: Continue with CS(=O)(=O)c1nc(-c2ccccc2)cc(C(F)(F)F)n1
Marked response: 146

Exam item: Continue with CCOc1cc(C(=O)N2CCN(c3ccc(C(C)=O)cc3)CC2)cc(OCC)c1OCC
Marked response: 109

Exam item: Continue with O=C1/C(=C/c2ccccn2)COc2ccccc21
Marked response: 110

Exam item: Continue with COc1ccccc1CN1C(=O)c2cccc3cccc(c23)C1=O
Marked response: 104

Exam item: Continue with CCCc1[nH]nc2c1C(c1ccc(Br)s1)C(C#N)=C(N)O2 (configuration not stated)
Marked response: 122
